Reference for the values: patent US8835632B2

Listed next: entries and their corresponding Extinction coefficient ε.
# experiment: Absorption and fluorescence spectra, extinction coefficient, fluorescence quantum yield
# Assay type: physicochemical
# experimental.setup: Butanol (BuOH)
The answer should be written as a number, with no unit following it.

Example results:
{"columns": ["compound", "measured"],
 "data": [
  ["CCN1/C(=C(C#N)/C=C/C=C2/C(=O)c3ccccc3S2(=O)=O)Sc2ccccc21 [S-SO-CN]", 91000],
  ["CCn1c([O-])c(/C=C/C=C/c2cc[n+]3c(c2)C(C)(C)c2ccccc2-3)c(=O)n(CC)c1=S [AI-TBA]", 53000]
]}

Quick note, Extinction coefficient ε for CN1/C(=C/C=C/C=C2/C(=O)c3ccccc3S2(=O)=O)C(C)(C)c2ccccc21 [I-SO, reference compound] landed at 134000

----------
Listed next: entries and their corresponding Observed emission λmax.
# experiment: Absorption and fluorescence spectra, extinction coefficient, fluorescence quantum yield
# Assay type: physicochemical
# experimental.setup: Table 15, MeOH
Number in nm, nothing else.

{"columns": ["compound", "measured"],
 "data": [
  ["CC1(C)c2ccccc2-[n+]2ccc(/C=C/C=C/C3=C(O)c4ccccc4S3(=O)=O)cc21 [AI-SO]", 665],
  ["CN1/C(=C/C=C/C=C2/C(=O)c3ccccc3S2(=O)=O)C(C)(C)c2ccccc21 [I-SO, reference compound]", 615],
  ["CC1(C)c2ccccc2-[n+]2ccc(/C=C/C3=C([O-])c4ccccc4S3(=O)=O)cc21 [AI-SO(2)]", 561]
]}

Please look at the following compound next.
Quick note, Observed emission λmax for CCN1C(=O)\C(=C/C=C/C=C2/N(C)c3ccccc3C2(C)C)C(O)N(CC)C1=S (stereo not shown) [I-TBA, reference compound] landed at 603

----------
# experiment: Absorption and fluorescence spectra, extinction coefficient, fluorescence quantum yield
# Format: physicochemical
# experimental.setup: Table 15, DMSO
Listed next: entries and their corresponding Observed emission (Φ).

Example results:
{"columns": ["smiles.data", "Observed emission (Φ)"],
 "data": [
  ["C[n+]1ccc(/C=C/C2=C([O-])c3ccccc3S2(=O)=O)cc1", 0.024],
  ["Cn1c([O-])c(/C=C/C=C/c2cc[n+]3c(c2)C(C)(C)c2ccccc2-3)c(=O)n(C)c1=O", 0.23],
  ["C[n+]1ccc(/C=C/C=C/C2=C([O-])c3ccccc3S2(=O)=O)cc1", 0.067]
]}

Please look at the following compound next.
Quick note, Observed emission (Φ) for `CC1(C)c2ccccc2-[n+]2ccc(/C=C/C3=C([O-])c4ccccc4S3(=O)=O)cc21` landed at 0.24

----------
Listed next: entries and their corresponding Observed absorption λmax.
# experiment: Absorption and fluorescence spectra, extinction coefficient, fluorescence quantum yield
# Format: physicochemical
# experimental.setup: Table 10, C6H6
Number in nm, nothing else.

Example results:
{"columns": ["molecule", "measurement.units", "Observed absorption λmax"],
 "data": [
  ["C[n+]1ccc(/C=C/C2=C([O-])c3ccccc3S2(=O)=O)cc1", "nm", 538],
  ["CN1/C(=C/C=C/C=C2/C(=O)c3ccccc3S2(=O)=O)C(C)(C)c2ccccc21 [I-SO, reference compound]", "nm", 571],
  ["CC1(C)c2ccccc2-[n+]2ccc(/C=C/C3=C([O-])c4ccccc4S3(=O)=O)cc21", "nm", 570],
  ["CCn1c([O-])c(/C=C/C=C/c2cc[n+]3c(c2)C(C)(C)c2ccccc2-3)c(=O)n(CC)c1=S", "nm", 683],
  ["CCN1C(=O)\\C(=C/C=C/C=C2/N(C)c3ccccc3C2(C)C)C(O)N(CC)C1=S (centres unmarked) [I-TBA, reference compound]", "nm", 584]
]}

Quick note, Observed absorption λmax for `Cn1c([O-])c(/C=C/C=C/c2cc[n+]3c(c2)C(C)(C)c2ccccc2-3)c(=O)n(C)c1=O` landed at 662

Quick note, Observed absorption λmax for `C[n+]1ccc(/C=C/C=C/C2=C([O-])c3ccccc3S2(=O)=O)cc1` landed at 644

Quick note, Observed absorption λmax for `CC1(C)c2ccccc2-[n+]2ccc(/C=C/C=C/C3=C(O)c4ccccc4S3(=O)=O)cc21` landed at 679

----------
# experiment: Absorption and fluorescence spectra, extinction coefficient, fluorescence quantum yield
# Type: physicochemical
# experimental.setup: Table 15, C6H6
Listed next: entries and their corresponding Observed emission (Φ).

Example results:
{"columns": ["compound", "readout.label", "measured"],
 "data": [
  ["C[n+]1ccc(/C=C/C2=C([O-])c3ccccc3S2(=O)=O)cc1", "Observed emission (Φ)", 0.004],
  ["CC1(C)c2ccccc2-[n+]2ccc(/C=C/C3=C([O-])c4ccccc4S3(=O)=O)cc21", "Observed emission (Φ)", 0.02]
]}

Please look at the following compound next.
Quick note, Observed emission (Φ) for CCN1C(=O)\C(=C/C=C/C=C2/N(C)c3ccccc3C2(C)C)C(O)N(CC)C1=S (stereo not drawn) [I-TBA, reference compound] landed at 0.20

----------
# experiment: Absorption and fluorescence spectra, extinction coefficient, fluorescence quantum yield
# Format: physicochemical
# experimental.setup: Table 10, CH2Cl2
# label = met if Observed absorption λmax >= 600 nm else not met

{"columns": ["molecule", "class"],
 "data": [
  ["CC1(C)c2ccccc2-[n+]2ccc(/C=C/C=C/C3=C(O)c4ccccc4S3(=O)=O)cc21 [AI-SO]", "met"],
  ["C[n+]1ccc(/C=C/C=C/C2=C([O-])c3ccccc3S2(=O)=O)cc1 [P-SO(4)]", "met"]
]}

INPUT: Quick check: does CC1(C)c2ccccc2-[n+]2ccc(/C=C/C3=C([O-])c4ccccc4S3(=O)=O)cc21 [AI-SO(2)] have Observed absorption λmax greater than or equal to 600 nm?
OUTPUT: not met

INPUT: Quick check: does CCn1c([O-])c(/C=C/C=C/c2cc[n+]3c(c2)C(C)(C)c2ccccc2-3)c(=O)n(CC)c1=S [AI-TBA] have Observed absorption λmax greater than or equal to 600 nm?
OUTPUT: met

INPUT: Quick check: does C[n+]1ccc(/C=C/C2=C([O-])c3ccccc3S2(=O)=O)cc1 [P-SO(2)] have Observed absorption λmax greater than or equal to 600 nm?
OUTPUT: not met

INPUT: Quick check: does Cn1c([O-])c(/C=C/C=C/c2cc[n+]3c(c2)C(C)(C)c2ccccc2-3)c(=O)n(C)c1=O [AI-BA] have Observed absorption λmax greater than or equal to 600 nm?
OUTPUT: met

----------
# experiment: Absorption and fluorescence spectra, extinction coefficient, fluorescence quantum yield
# Format: physicochemical
# experimental.setup: Methanol (MeOH)
# Description: Absorption spectra were recorded on a Hewlett-Packard 8453 diode array UV-Vis spectrophotometer (Agilent Technologies, Inc., Santa Clara, Calif.), and fluorescence measurements were taken on a SPEX® Fluorolog 2 spectrofluorometer (HORIBA Jobin Yvon, Inc., Edison, N.J.). Melting points are not corrected. NMR spectra were obtained on a Varian Mercury 300 MHz (Varian, Inc., Palo Alto, Calif.) or on a Bruker 300 MHz DRX 300 spectrometer (Bruker Biospin Corp., Billerica, Mass.). […]
readout.label: Absorbance λmax (nm)
Number in nm, nothing else.

Example results:
{"columns": ["molecule", "Absorbance λmax, nm"],
 "data": [
  ["CCn1c(O)c(/C=C/C=C(\\C#N)c2cc[n+]3c(c2)C(C)(C)c2ccccc2-3)c(=O)n(CC)c1=S [AI-TBA-CN]", 606],
  ["CCN1/C(=C(C#N)/C=C/C=C2/C(=O)c3ccccc3S2(=O)=O)Sc2ccccc21 [S-SO-CN]", 547],
  ["CC1(C)c2ccccc2-[n+]2ccc(/C(C#N)=C/C=C/C3=C(O)c4ccccc4S3(=O)=O)cc21 [AI-SO-CN]", 608]
]}

Please look at the following molecule next.
Quick note, Absorbance λmax for CCn1c([O-])c(/C=C/C=C/c2cc[n+]3c(c2)C(C)(C)c2ccccc2-3)c(=O)n(CC)c1=S [AI-TBA] landed at 576

----------
# experiment: Absorption and fluorescence spectra, extinction coefficient, fluorescence quantum yield
# Assay type: physicochemical
# experimental.setup: Table 15, MeOH
# Procedure: Absorption spectra were recorded on a Hewlett-Packard 8453 diode array UV-Vis spectrophotometer (Agilent Technologies, Inc., Santa Clara, Calif.), and fluorescence measurements were taken on a SPEX® Fluorolog 2 spectrofluorometer (HORIBA Jobin Yvon, Inc., Edison, N.J.). Melting points are not corrected. NMR spectra were obtained on a Varian Mercury 300 MHz (Varian, Inc., Palo Alto, Calif.) or on a Bruker 300 MHz DRX 300 spectrometer (Bruker Biospin Corp., Billerica, Mass.). […]
readout.label: Observed emission λmax (nm)
Number in nm, nothing else.

Example results:
{"columns": ["smiles.data", "Observed emission λmax, nm"],
 "data": [
  ["C[n+]1ccc(/C=C/C2=C([O-])c3ccccc3S2(=O)=O)cc1", 529],
  ["Cn1c([O-])c(/C=C/C=C/c2cc[n+]3c(c2)C(C)(C)c2ccccc2-3)c(=O)n(C)c1=O", 618]
]}

Please look at the following molecule next.
Quick note, Observed emission λmax for `C[n+]1ccc(/C=C/C=C/C2=C([O-])c3ccccc3S2(=O)=O)cc1` landed at 630
